Provenance of the data: PubChem BioAssay (NCI)

system: NCI-H522 lung; assay: NCI-60 one-dose screen, 48 h (100 = growth as untreated, 0 = no growth, -100 = all killed); conditions: 10 µM unless noted
The panel holds about 83,000 compounds, 20% with a hit somewhere; the sample as a whole holds those more often.
Consider the following partition of reported growth into named classes: bin A: < -20%; bin B: ≥ -20% and < 30%; bin C: ≥ 30%

Would you please look over these solved cases?
{"COMPOUND": "CCOC(=O)C1=C(C)N=c2s/c(=C\\c3ccccc3O)c(=O)n2C1c1ccc(OC)c2ccccc12 (stereo not given)", "ASSAY SYSTEM": "NCI-H522 lung", "ASSIGNED CLASS": "bin A"}
{"COMPOUND": "O=C1C(=O)c2c(ccc3ccccc23)-c2ccccc21", "ASSAY SYSTEM": "NCI-H522 lung", "ASSIGNED CLASS": "bin A"}
{"COMPOUND": "O=c1oc2ccc(F)cc2c(=O)n1-c1ccc(Br)cc1F", "ASSAY SYSTEM": "NCI-H522 lung", "ASSIGNED CLASS": "bin B"}
{"COMPOUND": "O=S(=O)(Nc1ncccn1)c1ccc(NC2Nc3nc4ccccc4nc3S2)cc1 (stereo not given)", "ASSAY SYSTEM": "NCI-H522 lung", "ASSIGNED CLASS": "bin C"}
{"COMPOUND": "COc1cc(NC(=O)CCSc2nc3ccccc3c(=O)n2Cc2ccccc2)cc(OC)c1OC", "ASSAY SYSTEM": "NCI-H522 lung", "ASSIGNED CLASS": "bin B"}
{"COMPOUND": "CNCCNc1nc2ccccc2c2c(=O)c3cccc(C)c3sc12", "ASSAY SYSTEM": "NCI-H522 lung", "ASSIGNED CLASS": "bin B"}

Input line: Into which category would you place CNCCNc1nc2ccccc2c2c(=O)c3cc(OC)ccc3sc12 ?
Output line: bin B

Input line: Which class holds COC(=O)[C@@H]1CCCN1C(=O)[C@H]1CCCN1C(=O)[C@@H](Cc1c[nH]c2ccccc12)NC(=S)Nc1cc(C(F)(F)F)cc(C(F)(F)F)c1 ?
Output line: bin C

Input line: Band of c1ccc(-c2ccc(-c3nc4ccccc4[nH]3)cc2)cc1 ?
Output line: bin C

Input line: GET /class?item= CCOC(=O)c1cnc2c(C)cccc2c1Nc1ccc(C(C)=O)cc1
Output line: bin A
